Target: avidin (unmodified, native) (Gallus gallus)
Construct: natural secreted glycoprotein from egg white (mature chain, signal peptide removed), commercial lyophilised (Merck), untagged; homotetramer, one ligand site per monomer
Sequence (P02701 25-152): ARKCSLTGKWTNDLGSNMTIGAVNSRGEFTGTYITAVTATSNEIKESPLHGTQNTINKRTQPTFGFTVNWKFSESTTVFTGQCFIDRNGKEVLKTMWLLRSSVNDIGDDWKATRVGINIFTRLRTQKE
Test: UV-Vis titration at […] nm, non-linear regression (Hill-Langmuir)
Conditions: read-out: Unmodified avidin / K d (×10^-5 mol dm^-3)
OBSERVED PROPERTY: Kd (µM)
Form entry: value (µM) — number only.

Enquiry: // lookup Kd for O=C(O)c1ccccc1N=Nc1ccc(O)cc1 [HABA]
Return: 11

The values you see were collected from paper PMC8178808.
